Tested on: Plasma
Test: Plasma concentration in human MDA-MB-231 cells xenografted mouse at 10 mg/kg
Format: ADME, organism-based
Set-up: dose 10 mg/kg
Details: in vivo
observation-type: concentration
Quick note: number first, unit second.

### Prompt Recorded concentration of CCN1CCC(Nc2ccc3c(c2)C(=C(c2ccc(Cl)cc2)c2ncc[nH]2)C(=O)N3)CC1 (mixture of isomers) , please.
### Response 40 nM

* * *

Experiment: Oral bioavailability in rat at 10 mg/kg
Assay type: ADME, organism-based
Conditions: in vivo
observation-type: bioavailability
Quick note: number first, unit second.

>>> reported_measurement("CCN1CCC(Nc2ccc3c(c2)C(=C(c2cc(F)cc(F)c2)c2nc4ccccc4[nH]2)C(=O)N3)CC1 (mixture of isomers)")
"72%"
>>> reported_measurement("CCN1CCC(Nc2ccc3c(c2)C(=C(c2ccc(Cl)cc2)c2ncc[nH]2)C(=O)N3)CC1 (mixture of isomers)")
"63%"
>>> reported_measurement("CCN1CCC(Nc2ccc3c(c2)C(=C(c2ccc(OC)cc2)c2nc4ccccc4[nH]2)C(=O)N3)CC1 (mixture of isomers)")
"27%"
>>> reported_measurement("CCN1CCC(Nc2ccc3c(c2)C(=C(c2ccc(C)cc2)c2nc4ccccc4[nH]2)C(=O)N3)CC1 (mixture of isomers)")
"55%"
>>> reported_measurement("CCN1CCC(Nc2ccc3c(c2)C(=C(c2cccc(F)c2)c2ncc(C)[nH]2)C(=O)N3)CC1 (mixture of isomers)")
"20%"

### Prompt Recorded bioavailability of CCN1CCC(Nc2ccc3c(c2)C(=C(c2ccccc2)c2ncc[nH]2)C(=O)N3)CC1 (mixture of isomers) , please.
### Response 16%

### Prompt Recorded bioavailability of CCN1CCC(Nc2ccc3c(c2)C(=C(c2cccc(F)c2)c2nc4ccccc4[nH]2)C(=O)N3)CC1 (mixture of isomers) , please.
### Response 63%
